Test Target: Klebsiella pneumoniae ATCC 25955 B12-dependent glycerol dehydratase (GDH), wild type, SEQ ID NO: 1 (α, β, γ subunits SEQ ID NO: 2, 3, 4) (Klebsiella pneumoniae, UniProt O08505+Q59476)
Test Summary: Time course of GDH reaction with glycerol, with and without 1,3-propanediol (permeabilized cells, FIG. 1)
Measurement Type: Ki

Query block: State its Ki: OCCCO
Result block: ~15 mM
